Experiment: Quantitative High-Throughput drug screen in 47 multiple myeloma cell lines against the NCATS MIPE library collection: JIM3_ECACC cell viability assay (AID 1918963; further: nearly all actives have a fitted effect of over 35% in size)
Conditions: JIM3 myeloma viability, CellTiter-Glo ATP, 48 h; series mostly up to 45.8 µM
From the text: PI: Beverly A. Mock Ph.D. Laboratory of Cancer Biology and Genetics, Center for Cancer Research, National Cancer Institute, National Institute of Health, Bethesda, Maryland […] 5; Detector; 425V; Luminescence; Viewlux PerkinElmer. […] 1. […] Briefly, the corresponding myeloma cell lines were screened in 1,536-well plates with 500 cells, 5-uL per well for inhibition of cell viability (assessed by measuring ATP levels with CellTiterGlo). […]
Records with an inconclusive call do not appear. Active and inactive are the calls of the source. The call rests on the fitted dose curve; in most records, active means well fitted cell-killing curve with a large enough effect; inconclusive means small, poorly fitted or top-dose-only effect; inactive means no such curve, though single readings can be large or run the other way.
Outcome codes: YES = active, NO = inactive

{"columns": ["compound", "class assignment"],
 "data": [
  ["CN1[C@@H]2CCC[C@@H]1CC(NC(=O)c1nn(C)c3ccccc13)C2 (stereo partly drawn)", "NO"],
  ["O=C(O)c1cc(O)c2c(c1)C(=O)c1cccc(O)c1C2=O", "NO"],
  ["CC[C@H]1OC(=O)[C@H](C)[C@@H](O[C@H]2C[C@@](C)(OC)[C@@H](O)[C@H](C)O2)[C@H](C)[C@@H](O[C@@H]2O[C@H](C)C[C@H](N(C)C)[C@@H]2O)[C@](C)(O)C[C@@H](C)CN(C)[C@H](C)[C@@H](O)[C@]1(C)O", "NO"],
  ["CC(C)=CC[C@@H](O)C1=CC(=O)c2c(O)ccc(O)c2C1=O", "YES"],
  ["CC[C@@]1(O)C[C@H](O[C@H]2C[C@H](N(C)C)[C@H](O[C@H]3C[C@H](O)[C@H](O[C@H]4CCC(=O)[C@H](C)O4)[C@H](C)O3)[C@H](C)O2)c2c(cc3c(c2O)C(=O)c2c(O)cccc2C3=O)[C@@H]1C(=O)OC", "YES"],
  ["COc1ccc2c3c1OC1C[C@@H](O)C=C[C@@]31CCN(C)C2 (stereo partly drawn)", "YES"],
  ["CC(C)C(=O)Nc1ncc(-c2cc(C(F)F)nn2-c2c(Cl)cccc2Cl)s1", "YES"],
  ["CC(C)n1nc(-c2ccc3oc(N)nc3c2)c2c(N)ncnc21", "YES"],
  ["CO[C@@H](C(=O)N1Cc2[nH]nc(NC(=O)c3ccc(N4CCN(C)CC4)cc3)c2C1)c1ccccc1", "YES"],
  ["COc1ccc(C2CC(c3ccccc3)=NN2c2ccc(S(N)(=O)=O)cc2)cc1 (stereo not drawn)", "YES"],
  ["Cc1ccc(C(C)(O)c2nc3ccccc3s2)c(C)c1 (stereo not drawn)", "NO"],
  ["N[C@H](CSC(c1ccccc1)(c1ccccc1)c1ccccc1)C(=O)O", "YES"],
  ["O=C1C[C@@H](c2ccc(O)cc2)Oc2cc(O)cc(O)c21", "NO"],
  ["CC(=Cc1ccccc1)C=C1SC(=S)N(CC(=O)O)C1=O", "NO"],
  ["O=C1NC(=O)C(=Cc2ccc3nccnc3c2)S1", "YES"],
  ["COc1cc2nc(-c3ccc(N4CCN(C)CC4)cc3)nc(NCCN3CCOCC3)c2cc1OC", "YES"],
  ["O=C(O)C(O)Cc1ccc(O)c(O)c1 (stereo not drawn)", "NO"],
  ["CC(C)(C)OC(=O)N[C@H]1CCCCCC=C[C@@H]2C[C@@]2(C(=O)NS(=O)(=O)C2CC2)NC(=O)[C@@H]2C[C@@H](OC(=O)N3Cc4cccc(F)c4C3)CN2C1=O", "NO"]
]}
